target_or_test_system: EGFR[T790M/C797S/L858R] (Homo sapiens, UniProt P00533, C797S/L858R/T790M)
Construct: purchased Carna Bio
Sequence (P00533 25-1210 T790M/C797S/L858R): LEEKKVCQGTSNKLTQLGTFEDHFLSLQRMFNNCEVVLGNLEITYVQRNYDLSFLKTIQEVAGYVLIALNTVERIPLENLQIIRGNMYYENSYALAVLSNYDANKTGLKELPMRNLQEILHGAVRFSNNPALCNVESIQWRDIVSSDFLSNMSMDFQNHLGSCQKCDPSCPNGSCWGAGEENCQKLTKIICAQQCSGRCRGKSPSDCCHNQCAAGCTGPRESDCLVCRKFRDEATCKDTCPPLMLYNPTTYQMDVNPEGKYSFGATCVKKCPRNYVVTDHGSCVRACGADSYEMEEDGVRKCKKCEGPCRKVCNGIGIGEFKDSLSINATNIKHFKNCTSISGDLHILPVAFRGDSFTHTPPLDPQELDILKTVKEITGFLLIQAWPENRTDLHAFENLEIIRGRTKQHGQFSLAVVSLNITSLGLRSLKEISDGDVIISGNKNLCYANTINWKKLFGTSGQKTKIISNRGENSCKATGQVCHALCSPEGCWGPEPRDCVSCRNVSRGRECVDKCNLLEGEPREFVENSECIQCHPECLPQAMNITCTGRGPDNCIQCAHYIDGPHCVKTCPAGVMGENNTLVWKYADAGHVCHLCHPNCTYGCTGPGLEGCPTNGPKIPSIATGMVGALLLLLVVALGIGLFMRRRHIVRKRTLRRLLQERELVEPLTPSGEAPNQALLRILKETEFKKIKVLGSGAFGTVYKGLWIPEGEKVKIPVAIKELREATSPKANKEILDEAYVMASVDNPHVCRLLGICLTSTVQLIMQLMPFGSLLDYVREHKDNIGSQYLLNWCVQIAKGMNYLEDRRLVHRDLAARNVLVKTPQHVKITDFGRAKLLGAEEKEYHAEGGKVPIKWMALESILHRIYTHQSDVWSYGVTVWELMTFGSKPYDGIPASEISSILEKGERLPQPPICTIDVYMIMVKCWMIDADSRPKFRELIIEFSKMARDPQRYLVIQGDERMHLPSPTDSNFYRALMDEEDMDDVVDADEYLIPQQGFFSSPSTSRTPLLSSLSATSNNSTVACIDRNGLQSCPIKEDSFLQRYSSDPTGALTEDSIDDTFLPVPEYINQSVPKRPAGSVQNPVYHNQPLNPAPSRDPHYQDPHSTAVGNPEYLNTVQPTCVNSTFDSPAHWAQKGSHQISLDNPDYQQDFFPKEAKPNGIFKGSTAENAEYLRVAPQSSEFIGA
protocol_summary: Inhibition of EGFR[T790M/C797S/L858R] biochemical enzymatic activity (HTRF)
condition_label: EGFR[T790M/C797S/L858R], 1 mM ATP, 1 h at room temperature, read-out: IC50 @T790M- C797S - L858R
Readings of log10 of IC50 for the listed molecules
measured_metric: log10 of IC50 (log10 of the value in nM)

* Cc1cc2cc(n1)-c1cnn(C)c1OCCN1CC3CCC(C3)(C1)n1c(nc3ccc(N4CCC(N5CCOCC5)C4)cc31)NC2=O (single isomer, unassigned) [Example B44B1] | 0.81
* Cc1cc2cc(n1)-c1cnn(C)c1OCCN1CCOCC(C1)n1c(nc3ccccc31)NC2=O (stereo not shown) [Example B7B] | 2.72
* Cc1cc2cc(n1)-c1cnn(C)c1OCCN1CCOCC(C1)n1c(nc3ccccc31)NC2=O (stereo not shown) [Example B7] | 3.04
* Cc1cc2cc(n1)-c1cnn(C)c1OCCN1CC3CCC(C3)(C1)n1c(nc3ccc(N4CCC(N5CCN(C)CC5)C4)cc31)NC2=O (single isomer, unassigned) [Example B49B] | 0.38
* Cc1cc2cc(n1)-c1cnn(C)c1OCCC[C@@H](C)Cn1c(nc3ccc4c(c31)CCN(CCN(C)C)C4)NC2=O | 0.48
* Cc1cc2cc(n1)-c1cnn(C)c1OCCN1CC3CCC(C3)(C1)n1c(nc3ccc(N4CC5CN(C)CC5C4)cc31)NC2=O (single isomer, unassigned) [Example B43B] | 0.36
* CCN1CCN(c2ccc3nc4n(c3c2)C23CCC(CN(CCOc5c(cnn5C)-c5cc(cc(C)n5)C(=O)N4)C2)C3)CC1 (single isomer, unassigned) [Example B56B] | 0.20
* Cc1cc2cc(n1)-c1cnn(C)c1OCCN1CC3CCC(C3)(C1)n1c(nc3ccc(N4CCC5(CC4)CCN5C)cc31)NC2=O (single isomer, unassigned) [Example B54B] | 0.20
* Cc1cc2cc(n1)-c1cnn(C)c1OCCN1CC3CCC(C3)(C1)n1c(nc3ccc(N4CC(N5CCOCC5)C4)cc31)NC2=O (single isomer, unassigned) [Example B48B] | 0.48
* Cc1cc2cc(n1)-c1cnn(C)c1OCCN1CC3CCC(C3)(C1)n1c(nc3ccc(N4CCC(N5CCOCC5)C4)cc31)NC2=O (single isomer, unassigned) [Example B44B2] | 0.74
* Cc1cc2cc(n1)-c1cnn(C)c1OCCN1CC3CCC(CC3)(C1)n1c(nc3ccc(N4CCC5(CN(C)C5)C4)cc31)NC2=O | 0.75
* Cc1cc2cc(n1)-c1cnn(C)c1OCCN1CCOCC(C1)n1c(nc3ccccc31)NC2=O (single isomer, unassigned) [Example B7A] | 3.22
* COCCN(C)c1ccc2nc3n(c2c1)C12CCC(CN(CCOc4c(cnn4C)-c4cc(cc(C)n4)C(=O)N3)C1)C2 (single isomer, unassigned) [Example B46B] | 0.67

###

target_or_test_system: EGFR Exon19Del (Homo sapiens, UniProt P00533, DEL746-750)
Construct: purchased Carna Bio
Sequence (P00533 with tags, fused parts or gaps DEL746-750 limits assumed): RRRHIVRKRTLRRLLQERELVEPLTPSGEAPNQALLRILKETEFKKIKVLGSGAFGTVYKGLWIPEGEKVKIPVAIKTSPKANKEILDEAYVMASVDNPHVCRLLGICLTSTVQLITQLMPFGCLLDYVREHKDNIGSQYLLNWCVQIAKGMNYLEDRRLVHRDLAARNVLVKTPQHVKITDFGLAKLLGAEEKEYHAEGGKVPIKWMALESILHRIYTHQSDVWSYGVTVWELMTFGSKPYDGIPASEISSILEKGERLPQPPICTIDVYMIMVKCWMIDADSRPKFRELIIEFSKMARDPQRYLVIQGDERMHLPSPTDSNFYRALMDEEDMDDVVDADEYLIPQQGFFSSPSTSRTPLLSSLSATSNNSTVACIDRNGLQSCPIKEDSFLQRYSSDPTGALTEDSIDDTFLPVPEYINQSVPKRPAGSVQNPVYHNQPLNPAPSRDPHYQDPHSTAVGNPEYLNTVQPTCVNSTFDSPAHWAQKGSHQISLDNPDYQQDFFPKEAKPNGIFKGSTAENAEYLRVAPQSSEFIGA
protocol_summary: Inhibition of EGFR Exon19Del biochemical enzymatic activity (HTRF)
condition_label: EGFR Del19, 1 mM ATP, 1 h, room temperature, read-out: IC50 @Del19
measured_metric: IC50 (nM)

• Cc1cc2cc(n1)-c1cnn(C)c1OCCN1CCCCC(C1)n1c(nc3ccccc31)NC2=O (stereo not drawn) = 592
• CN1CCN(c2ccc3nc4n(c3c2)C23CCC(CC2)CN(CCOc2c(cnn2C)-c2cc(cn(C)c2=O)C(=O)N4)C3)CC1 = 3.3
• C[C@@H]1CCCOc2c(cnn2C2CC2)-c2cc(cn(C)c2=O)C(=O)Nc2nc3ccc(N4CCN(C)CC4)cc3n2C1 = 9.1
• CN1CC2(CCN(c3ccc4nc5n(c4c3)C34CCC(CN(CCOc6c(cnn6C)-c6cc(cn(C)c6=O)C(=O)N5)C3)C4)C2)C1 (single isomer, unassigned) [Example A73B] = 1.3
• CN(C)C1CCN(c2ccc3nc4n(c3c2)C23CCC(CN(CCOc5c(cnn5C)-c5cc(cn(C)c5=O)C(=O)N4)C2)C3)CC1 (single isomer, unassigned) [Example A64A] = 2160
• CCn1ncc2c1OCCC[C@@H](C)Cn1c(nc3ccc(N4CCN(C)CC4)cc31)NC(=O)c1cc-2c(=O)n(C)c1 = 4.6

Every entry's value here was drawn from patent US20260365670A1.
